Data origin: patent US9422240B2

Reported inhibition at 1 µM values for the following molecules.
target: UniProtKB Q9GZT9; assay: Test 2: human PHD2 inhibitory activity, fluorescence polarization assay of HIF-1α peptide proline hydroxylation; assay type: biochemical; conditions: test compound's concentration 1 μM; Test 2, fluorescence polarization assay; read-out: Percent inhibition (% at 1 μM)
Sequence (Q9GZT9 whole entry): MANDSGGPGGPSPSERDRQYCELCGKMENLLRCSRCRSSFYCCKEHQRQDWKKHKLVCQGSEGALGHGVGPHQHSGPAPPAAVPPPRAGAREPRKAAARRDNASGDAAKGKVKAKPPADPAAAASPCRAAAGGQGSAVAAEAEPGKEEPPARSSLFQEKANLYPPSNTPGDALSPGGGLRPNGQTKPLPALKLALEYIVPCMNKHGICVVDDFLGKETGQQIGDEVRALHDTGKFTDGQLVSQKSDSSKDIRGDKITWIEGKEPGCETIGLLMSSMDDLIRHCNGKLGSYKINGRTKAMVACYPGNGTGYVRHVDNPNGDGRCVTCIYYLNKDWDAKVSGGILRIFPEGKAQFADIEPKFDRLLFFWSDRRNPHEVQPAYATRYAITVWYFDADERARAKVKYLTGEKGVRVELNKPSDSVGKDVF
Property measured: inhibition at 1 µM (%)

[
  {
    "Molecule": "CC(C)CN1CCC(O)=C(C(=O)NCC(=O)O)C1=O",
    "Reported value": 42
  },
  {
    "Molecule": "CCc1ccc(CN2CCC(O)=C(C(=O)NCC(=O)O)C2=O)cc1",
    "Reported value": 78
  },
  {
    "Molecule": "CC1(C)CC(O)=C(C(=O)NCC(=O)O)C(=O)N1Cc1ccc(Br)cc1",
    "Reported value": 71
  },
  {
    "Molecule": "O=C(O)CNC(=O)C1=C(O)CCN(Cc2ccc(OCC3CCC3)cc2)C1=O",
    "Reported value": 99
  },
  {
    "Molecule": "O=C(O)CNC(=O)C1=C(O)C2(CCC2)N(Cc2ccc(-c3ccccc3)cc2)C1=O",
    "Reported value": 96
  },
  {
    "Molecule": "COc1ccc(CN2CCC(O)=C(C(=O)N[C@H](C)C(=O)O)C2=O)cc1",
    "Reported value": 1
  },
  {
    "Molecule": "O=C(O)CNC(=O)C1=C(O)CC2(CCC2)N(Cc2ccc(-c3ccccn3)cc2)C1=O",
    "Reported value": 90
  },
  {
    "Molecule": "CCCc1ccc(Oc2ccc(CN3CCC(O)=C(C(=O)NCC(=O)O)C3=O)cn2)cc1",
    "Reported value": 96
  },
  {
    "Molecule": "O=C(O)CNC(=O)C1=C(O)CCN(Cc2ccc(-c3cnc(O)s3)cc2)C1=O",
    "Reported value": 95
  },
  {
    "Molecule": "O=C(O)CNC(=O)C1=C(O)CCN(CC2CCC(OCc3ccc(Cl)cc3)CC2)C1=O (stereo not drawn)",
    "Reported value": 95
  },
  {
    "Molecule": "Cc1ccc(Oc2ccc(CN3C(=O)C(C(=O)NCC(=O)O)=C(O)CC34CC4)cn2)cc1",
    "Reported value": 100
  },
  {
    "Molecule": "Cc1cc(CN2C(=O)C(C(=O)NCC(=O)O)=C(O)CC2(C)C)ccc1OCC1CC1",
    "Reported value": 75
  },
  {
    "Molecule": "O=C(O)CNC(=O)C1=C(O)CCN(Cc2ccc(-c3ccc(F)cc3)nc2)C1=O",
    "Reported value": 91
  },
  {
    "Molecule": "CC1(C)CC(O)=C(C(=O)NCC(=O)O)C(=O)N1CC1CCN(c2ncccn2)CC1",
    "Reported value": 32
  },
  {
    "Molecule": "CC1(C)CC(O)=C(C(=O)NCC(=O)O)C(=O)N1Cc1ccc(-c2ccccc2)cc1",
    "Reported value": 85
  },
  {
    "Molecule": "CC1(C)CC(O)=C(C(=O)NCC(=O)O)C(=O)N1CC1CCC(c2ccccc2)CC1 (stereo not drawn)",
    "Reported value": 83
  },
  {
    "Molecule": "O=C(O)CNC(=O)C1=C(O)CCN(Cc2ccc(C(=O)NCCc3ccccn3)cc2)C1=O",
    "Reported value": 74
  },
  {
    "Molecule": "O=C(O)CNC(=O)C1=C(O)CCN(CCc2cccc(C(F)(F)F)c2)C1=O",
    "Reported value": 78
  }
]
